test-system: T1, soluble FGFR1c receptor protein (human, UniProt P11362 141-376)
T1 sequence: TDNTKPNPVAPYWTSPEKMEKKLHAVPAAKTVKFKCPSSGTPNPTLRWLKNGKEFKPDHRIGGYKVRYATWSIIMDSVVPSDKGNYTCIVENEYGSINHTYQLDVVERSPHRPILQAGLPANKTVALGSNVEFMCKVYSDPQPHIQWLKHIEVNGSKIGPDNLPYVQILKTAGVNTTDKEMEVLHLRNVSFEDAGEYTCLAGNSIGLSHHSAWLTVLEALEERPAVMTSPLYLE
assay-remarks: BLI Octet RED96, antibody on anti-hIgG Fc tip
# maps each entry to its koff
Write the number in s⁻¹ without appending the unit.

Consider the following illustrative entries.
Vk11 combined with the VH of Ab15 (antibody, V domains shown, captured on anti-human IgG Fc tips) VH: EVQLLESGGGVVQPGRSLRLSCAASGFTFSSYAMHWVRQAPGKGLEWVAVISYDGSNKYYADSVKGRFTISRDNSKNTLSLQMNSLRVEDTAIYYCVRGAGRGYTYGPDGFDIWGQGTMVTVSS VL: DIVMTQSPLSLPVTPGEPASISCTSSRSLLHSDGKTYVYWYLQKPGQSPQVLIYELSNRFSGVPDRFSGSGSGTDFTLKISRVEAEDVGVYYCMQYIEAPLTFGGGTKVEIK    0.000327
Vk2 combined with the VH of Ab15 (antibody, V domains shown, captured on anti-human IgG Fc tips) VH: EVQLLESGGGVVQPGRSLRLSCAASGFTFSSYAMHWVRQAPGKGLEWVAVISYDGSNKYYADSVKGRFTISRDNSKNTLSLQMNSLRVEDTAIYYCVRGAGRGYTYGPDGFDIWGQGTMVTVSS VL: DIVMTQTPLSLSVTPGQPASISCTSSRSLLHSDGKTYVYWYLQKPGQPPQLLIYELSNRFSGVPDRFSGSGSRTDFTLKISRVEAEDVGVYYCMQYIEAPLTFGGGTKVEIK    0.000313

Req: Which koff reading was recorded for the binder Vk10 combined with the VH of Ab15 (antibody, V domains shown, captured on anti-human IgG Fc tips) VH: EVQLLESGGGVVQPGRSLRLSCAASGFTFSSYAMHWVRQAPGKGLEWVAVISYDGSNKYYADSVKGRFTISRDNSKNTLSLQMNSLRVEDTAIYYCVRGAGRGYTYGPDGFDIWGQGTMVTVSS VL: DIVMTQSPDSLAVSLGERATISCTSSRSLLHSDGKTYVYWYQQKPGQPPKLLIYELSNRFSGVPDRFSGSGSRTDFTLTISSLQAEDVAVYYCMQYIEAPLTFGGGTKVEIK ?
Resp: 0.000294
